// provenance: patent US20150190534A1

Target: T877A-AR (Homo sapiens, UniProt P10275, T878A)
Construct: pSG5-AR with full-length cDNA of human WT-AR
Sequence (P10275 1-920 T878A): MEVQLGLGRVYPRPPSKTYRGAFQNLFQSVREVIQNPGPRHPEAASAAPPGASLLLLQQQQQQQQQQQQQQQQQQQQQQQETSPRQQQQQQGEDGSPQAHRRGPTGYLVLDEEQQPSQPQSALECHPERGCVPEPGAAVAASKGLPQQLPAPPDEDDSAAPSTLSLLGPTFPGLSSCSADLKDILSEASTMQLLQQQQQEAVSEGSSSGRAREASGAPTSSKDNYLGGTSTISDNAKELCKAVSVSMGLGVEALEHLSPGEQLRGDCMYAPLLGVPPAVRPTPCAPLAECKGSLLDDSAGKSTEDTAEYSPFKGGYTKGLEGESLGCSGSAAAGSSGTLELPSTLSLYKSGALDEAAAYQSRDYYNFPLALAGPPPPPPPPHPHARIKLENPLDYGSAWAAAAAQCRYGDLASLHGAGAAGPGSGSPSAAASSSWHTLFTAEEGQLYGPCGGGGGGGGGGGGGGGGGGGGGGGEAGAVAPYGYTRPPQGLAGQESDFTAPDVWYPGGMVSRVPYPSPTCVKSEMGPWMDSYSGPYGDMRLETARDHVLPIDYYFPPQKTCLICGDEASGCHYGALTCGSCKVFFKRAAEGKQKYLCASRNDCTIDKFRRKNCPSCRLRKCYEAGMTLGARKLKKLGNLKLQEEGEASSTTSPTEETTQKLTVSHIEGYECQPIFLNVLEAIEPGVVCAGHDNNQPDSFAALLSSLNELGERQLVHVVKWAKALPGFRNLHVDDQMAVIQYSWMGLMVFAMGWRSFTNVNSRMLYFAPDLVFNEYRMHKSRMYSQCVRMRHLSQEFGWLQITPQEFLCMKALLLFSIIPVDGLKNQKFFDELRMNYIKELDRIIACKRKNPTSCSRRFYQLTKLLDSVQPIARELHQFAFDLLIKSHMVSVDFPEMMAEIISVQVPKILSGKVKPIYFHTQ
Assay: Whole cell competitive binding assay, T877A-AR
Each record here notes measured IC50.

{"columns": ["CHEMICAL STRING", "TARGET SYSTEM", "IC50"],
 "data": [
  ["C[C@]12CCC(=O)C[C@@H]1CC[C@@H]1[C@@H]2CC[C@]2(C)[C@@H](OC(=O)NCCCF)CC[C@@H]12", "T877A-AR (Homo sapiens, UniProt P10275, T878A)", "0.032 µM"],
  ["C[C@]12CC[C@H](O)C[C@@H]1CC[C@@H]1[C@@H]2CC[C@]2(C)[C@@H](OC(=O)NCCCF)CC[C@@H]12", "T877A-AR (Homo sapiens, UniProt P10275, T878A)", "0.0377 µM"]
]}
